Source listed as ChEMBL document CHEMBL1201862.

Molecular target: Induced myeloid leukemia cell differentiation protein Mcl-1 (Homo sapiens, UniProt Q07820)
Sequence (Q07820 whole entry): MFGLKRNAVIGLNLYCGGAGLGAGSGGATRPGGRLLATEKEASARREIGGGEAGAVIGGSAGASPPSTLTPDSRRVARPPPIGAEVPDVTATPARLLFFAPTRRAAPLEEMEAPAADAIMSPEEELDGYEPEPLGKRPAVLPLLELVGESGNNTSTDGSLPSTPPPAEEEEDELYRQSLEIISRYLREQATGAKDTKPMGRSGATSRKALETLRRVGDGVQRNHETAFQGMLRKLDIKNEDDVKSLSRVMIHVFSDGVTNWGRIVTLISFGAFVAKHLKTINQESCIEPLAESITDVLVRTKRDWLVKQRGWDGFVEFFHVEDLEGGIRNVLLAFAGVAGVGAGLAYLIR
Experiment: Mcl-1 Noxa peptide disruption concentration-response – biochemical, TR-FRET, dose response (AID 1417)
Format: functional
The source made the active and inactive calls. The rule behind the calls is not given here.
reported endpoint: IC50

| compound | test result |
| --- | --- |
| Cc1ccc(C(=O)OCC(=O)Nc2ccc(N(C)C)cc2)cc1NC(=O)c1ccco1 | 3670 nM (not active) |
| CCOc1c(Cl)cc(CNc2ccc(N3CCCC3)cc2)cc1OC | 2690 nM (active) |
| Cc1ccc(S(=O)(=O)Nc2ccc(N(C)C)cc2)cc1 | 10700 nM (not active) |
| COc1ccc2nc(N3C(=O)/C(=C/c4ccc(Cl)cc4)NC3=S)sc2c1 | 1500 nM (active) |
| Cc1cc2c(C(C)C)c(O)c(O)c(C=O)c2c(O)c1-c1c(C)cc2c(C(C)C)c(O)c(O)c(C=O)c2c1O [GOSSYPOL] | 1520 nM (active) |

====

The reader will find AC50 measurements below, all made with Cytochrome P450 3A4 (Homo sapiens).
Sequence (P08684 whole entry): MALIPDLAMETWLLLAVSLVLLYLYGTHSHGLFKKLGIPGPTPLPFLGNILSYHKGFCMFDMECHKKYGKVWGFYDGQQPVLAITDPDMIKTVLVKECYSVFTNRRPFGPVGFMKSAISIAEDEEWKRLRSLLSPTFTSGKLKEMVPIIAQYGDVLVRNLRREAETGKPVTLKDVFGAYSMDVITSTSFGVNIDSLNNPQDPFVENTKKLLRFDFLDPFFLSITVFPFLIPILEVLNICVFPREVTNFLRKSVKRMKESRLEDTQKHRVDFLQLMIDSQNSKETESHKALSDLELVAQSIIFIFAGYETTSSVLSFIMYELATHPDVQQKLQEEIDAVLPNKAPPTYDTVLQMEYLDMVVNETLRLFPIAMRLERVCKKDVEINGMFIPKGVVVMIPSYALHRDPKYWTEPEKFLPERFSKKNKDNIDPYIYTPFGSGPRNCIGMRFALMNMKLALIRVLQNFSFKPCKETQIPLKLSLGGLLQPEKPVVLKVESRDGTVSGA

| molecule | AC50 |
| --- | --- |
| COCC(=O)N1CCC[C@@]2(CCN(Cc3ccc(C#N)cc3)C2)C1 | 12.6 µM (inconclusive) |
| O=c1c(-c2ccccc2)nc2cnc(N3CCOCC3)nc2n1-c1ccccc1 | 20 µM (inconclusive) |
| N=C(Nc1ccc(I)cc1)NC1C2CC3CC(C2)CC1C3 (configuration not stated) | 15.8 µM (inconclusive) |
| NC(=O)c1ccc(N2CCCCC2)c(N2C(=O)C3CC=CCC3C2=O)c1 (configuration not stated) | 25.1 µM (inconclusive) |
| Cn1cnnc1SCC(=O)n1c2ccccc2c2ccccc21 | 25.1 µM (inconclusive) |
| COCCn1c(=O)c(-c2ccccc2)nc2cnc(N(C)C)nc21 | 39.8 µM (inconclusive) |
| CCOc1cc(/C=N/NC(=O)c2cccc([N+](=O)[O-])c2)ccc1OS(=O)(=O)c1ccccc1 | 8.91 µM (inconclusive) |
| COCCNC(=O)COc1ccc(OCCNC[C@@H](O)COc2ccccc2)cc1 | 31.6 µM (inconclusive) |
| COc1ccc(CNc2nc3nc4c(c(O)n3n2)CCC4)cc1 | 39.8 µM (inconclusive) |
| CCCCNC(=O)c1cc2nc3c(c(C(F)(F)F)n2n1)CCc1ccccc1-3 | 7.94 µM (inconclusive) |
| O=c1onc2cnc3ccccc3n12 | 31.6 µM (inconclusive) |
| COc1ccc(/C=N/OCc2nc3c4c(ncn3n2)Oc2ccc3ccccc3c2C4c2ccccc2)cc1 (configuration not stated) | 39.8 µM (inconclusive) |

====

Target: Oxysterols receptor LXR-beta (Homo sapiens, UniProt P55055);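 note: HEK293 cells with Gal4-LXR fusion and GAL4-driven luciferase reporter; potency for activation of Gal4-LXR reporter so compounds are agonists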;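 note: agonist activity at LXR measured by a cell-based luminescence readout across a dose range, run as a counterscreen for daf-12 agonists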
Sequence (P55055 whole entry, the tested form may be a part): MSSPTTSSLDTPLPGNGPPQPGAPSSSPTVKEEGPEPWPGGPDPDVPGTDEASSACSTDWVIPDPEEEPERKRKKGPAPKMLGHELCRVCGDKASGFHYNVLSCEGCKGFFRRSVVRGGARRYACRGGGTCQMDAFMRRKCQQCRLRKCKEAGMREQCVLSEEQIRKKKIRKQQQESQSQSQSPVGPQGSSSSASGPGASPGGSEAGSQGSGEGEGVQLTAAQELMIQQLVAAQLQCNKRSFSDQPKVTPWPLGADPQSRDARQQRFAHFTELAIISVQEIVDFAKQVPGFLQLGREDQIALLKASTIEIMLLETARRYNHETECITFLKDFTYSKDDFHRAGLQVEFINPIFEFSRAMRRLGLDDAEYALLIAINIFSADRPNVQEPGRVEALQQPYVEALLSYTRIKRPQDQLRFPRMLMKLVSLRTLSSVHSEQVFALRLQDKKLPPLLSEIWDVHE
Format: functional, cell-based
Active and inactive are the calls of the source.

| compound | EC50 |
| --- | --- |
| c1cncc(-c2noc(-c3ccc4ccccc4c3)n2)c1 | > 67.5 µM (inactive) |
| O=C(NNCc1ccccc1)c1ccccn1 | > 67.6 µM (inactive) |
| C#CCNC(=O)C[C@H]1C[C@@]2(C(=O)OC)C(=C[C@H](C(C)C)O[C@@H]2C2CC2)N(CCCCCCCC)C1=O | > 67.5 µM (inactive) |
| Cc1ccc(CN2CCN(CC(C)C)C(CCO)C2)s1 (stereo unspecified) | > 67.6 µM (inactive) |
| CCCCSc1ncnc2c1ncn2C1CCCCO1 (stereo unspecified) | > 67.4 µM (inactive) |
| CCOC(=O)c1c(C)oc2c1cc(O)c1ccccc12 | > 67.5 µM (inactive) |
